system: Plasmodium falciparum; experiment: MMV: 3H-Hyoxanthine uptake assay; RPMI 1640 (Invitrogen cat#11875-093) with Sodium Bicarbonate (NaHCO3) […].; format: functional, organism-based; details: 3D7
pIC50: −log10 of the molar value.
Endpoint Name: pIC50

For each listed entry, give its pIC50.
1. Cc1ccc(-c2cc3c(SCC(=O)Nc4cc(C(F)(F)F)ccc4Cl)nccn3n2)cc1
2. CCCCCCOC(=O)C1=C(C)NC(=O)NC1c1ccccc1F (stereo not given)
3. Fc1ccc2[nH]c3c(NCCCN4CCOCC4)ncnc3c2c1
4. COc1cccc(C=Cc2nc(=O)c3ccccc3o2)c1OC
5. Cc1ccc(N2C3c4ccccc4N(S(=O)(=O)c4ccc(C)cc4)C2c2ccccc2N3S(=O)(=O)c2ccc(C)cc2)cc1
6. CCOC(=O)C1=C(c2ccccc2)N=c2sc(=Cc3cc(C)n(-c4ccc(F)cc4)c3C)c(=O)n2C1c1cccc(OC)c1OC (stereo not given)
7. COc1ccc(C(C)=O)cc1N1C(=O)C2C(C1=O)C1(c3ccccc3)C(=O)C2(c2ccccc2)C(c2ccc(C)cc2)=C1c1ccc(C)cc1 (stereo not given)

A.
1. < 6.30
2. < 6.00
3. < 6.00
4. < 6.30
5. < 6.30
6. < 6.00
7. < 6.00

For each listed entry, give its pIC50.
1. Cc1cc(C=C2SC(=Nc3ccccc3)N(C3CCCC3)C2=O)c(C)n1-c1ccc(Cl)cc1
2. Cc1ccc(N2C(=O)C3C(C2=O)C2(c4ccccc4)C(=O)C3(c3ccccc3)C(c3ccccc3)=C2c2ccccc2)cc1 (stereo not given)
3. CCOC(=O)c1cnc2c(C)cc(C)cc2c1Nc1ccc(OC)c(OC)c1

A.
< 6.00
< 6.00
< 5.70
